Each recorded value in this set is attributed to patent US8546414B2.

Target: CaV2.2 (Homo sapiens, UniProt Q00975)
Assay: VIPR optical membrane potential assay with electrical stimulation, CaV2.2
Conditions: Table 9, CaV 2.2 receptors
readout-type: IC50

>>> recorded_measurement("CN1CCN(c2ncc(C(=O)N(Cc3ccccc3)C3CCCCC3)c(-c3ccccc3F)n2)CC1")
"2 to 10 µM"
>>> recorded_measurement("CC(=O)NCCNc1ncc(C(=O)N2CCC(C)CC2)c(-c2ccc(-c3ccccc3)cc2)n1")
"2 to 10 µM"
>>> recorded_measurement("COc1cccc(N(C(=O)c2cnc(N3CCOCC3)nc2-c2ccccc2F)C2CCC2)c1")
"> 10 µM"

Item under review: COCCNc1ncc(C(=O)N(CC(C)C)CC(C)C)c(-c2cccc(C)c2)n1 . Reported IC50?
> 10 µM

So what does the record say about IC50 for COCCCNc1ncc(C(=O)N(Cc2ccccc2)C(C)C)c(-c2ccccc2F)n1 ?
> 10 µM

Quick check: IC50 of COCCCNc1ncc(C(=O)NCC2CCCCC2)c(-c2cccc(C)c2)n1 ?
> 10 µM

Form field: reported IC50 of COc1cccc(CN(C(=O)c2cnc(N3CCCCC3)nc2-c2ccccc2Cl)C(C)C)c1
2 to 10 µM

I'd like to know its IC50. The compound in question is CC(C)N(C(=O)c1cnc(N2CCOCC2)nc1-c1ccccc1F)c1ccccc1
2 to 10 µM

# query: IC50 of entry COCCNc1ncc(C(=O)N(C)C2CCCCC2)c(-c2ccccc2F)n1
> 10 µM

Field request: IC50 | item: COc1cc2c(cc1OC)CN(C(=O)c1cnc(N3CCOCC3)nc1-c1ccccc1F)CC2
> 10 µM

I have this compound here, CC(C)N(Cc1ccccc1)C(=O)c1cnc(N2CCC3CCCCC3C2)nc1-c1ccccc1F (centres unmarked) , and I need its recorded IC50.
< 2 µM

====

Target: CaV2.2 (Homo sapiens)
Assay: VIPR optical membrane potential assay with electrical stimulation, CaV2.2
Conditions: Table 9, CaV 2.2 receptors
readout-type: IC50

Some solved cases for reference:
>>> recorded_measurement("CCC1CCC(C)N(C(=O)c2cnc(NCC3CC3)nc2-c2ccccc2F)C1 (stereo not shown)")
"2 to 10 µM"
>>> recorded_measurement("COc1cccc(CN(C(=O)c2cnc(N3CCc4ccccc4C3)nc2-c2ccccc2F)C(C)C)c1")
"< 2 µM"
>>> recorded_measurement("CC(=O)N1CCN(c2ncc(C(=O)N3CCCCC3)c(-c3ccc(C#N)cc3)n2)CC1")
"> 10 µM"

Which IC50 value is on record for O=C(c1cnc(N2CCCCC2)nc1-c1ccccc1F)N(Cc1ccccc1)C1CCCC1 ?
2 to 10 µM

====

Target: CaV2.2 (Homo sapiens, UniProt Q00975)
Test: VIPR optical membrane potential assay with electrical stimulation, CaV2.2
Conditions: Table 9, CaV 2.2 receptors
Listing of recorded IC50 by entry.

>>> recorded_measurement("CCCN(CC1CC1)c1ncc(C(=O)N(Cc2cccc(OC)c2)C(C)C)c(-c2ccccc2F)n1 [compound 4]")
"< 2000 nM"
>>> recorded_measurement("CCN(CCOC)c1ncc(C(=O)N(Cc2ccccc2)C(C)C)c(-c2ccccc2F)n1 [compound 83]")
"< 2000 nM"
>>> recorded_measurement("CC(C)N(Cc1ccccc1)C(=O)c1cnc(NCc2ccc3c(c2)OCO3)nc1-c1ccccc1F [compound 301]")
"> 10000 nM"

Note: attention shifts to another entry.
Quick check: IC50 on CaV2.2 (Homo sapiens, UniProt Q00975), item CC(C)N(C(=O)c1cnc(N2CCCCC2)nc1-c1ccccc1F)c1ccc2c(c1)OCO2 [compound 70] ?
< 2000 nM

====

Biological target: NaV1.3 (Homo sapiens)
Construct: expressed in transfected cells; host or cells: HEK293
Test: VIPR optical membrane potential assay with electrical stimulation, NaV1.3
Format: cell-based
Conditions: Table 9, NaV 1.3 receptors
pIC50: −log10 of the molar value.
List of pIC50 values.

>>> recorded_measurement("CC1C(NC(=O)c2cnc(N3CCOCC3)nc2-c2ccc(C#N)cc2)CC2CC1C2(C)C (stereo not shown)")
"< 5.00"

For the molecule O=C(c1cnc(N2CCSCC2)nc1-c1ccccc1F)N(Cc1ccccc1)C1CCCC1 , what pIC50 is on record?
5.00 to 5.70

Form field: reported pIC50 of CCN(C)C(=O)c1cnc(N2CCOCC2)nc1-c1ccccc1F
< 5.00

pIC50 for CN1CCN(c2ncc(C(=O)N(Cc3ccccc3)C3CCC3)c(-c3ccccc3F)n2)CC1 ?
5.00 to 5.70

Report pIC50 for CC(C)N(C(=O)c1cnc(N2CCCCC2)nc1-c1ccccc1F)C1CCSC1 (stereo not shown) please.
< 5.00

Quick check: pIC50 of O=C(c1cnc(N2CCOCC2)nc1-c1ccccc1F)N1CCCCC1 ?
< 5.00

Can you share its pIC50? I mean this molecule: COCCNc1ncc(C(=O)N(CC(C)C)CC(C)C)c(-c2cccc(C)c2)n1
< 5.00

Which pIC50 value belongs to CCCCNC(=O)c1cnc(N(C)CCc2ccc(OC)c(OC)c2)nc1-c1ccc(C#N)cc1 ?
< 5.00

If you can, please state the reported pIC50 value of CC(C)CN(C)C(=O)c1cnc(NCCc2cccc(F)c2)nc1-c1ccc(C#N)cc1 .
< 5.00

====

Molecular target: CaV2.2 (Homo sapiens)
Assay: VIPR optical membrane potential assay with electrical stimulation, CaV2.2
Conditions: Table 9, CaV 2.2 receptors
Method: A. Optical Methods for Assaying CaV Inhibition Properties of Compounds: Antagonist properties of test compounds were assessed as follows. Cells expressing the CaV of interest were placed into microtiter plates. […] The cells were stimulated with electrical means to evoke a CaV dependent membrane potential change from unblocked channels, which was detected and measured with trans-membrane potential-sensitive dyes. Antagonists were detected as a decreased membrane potential response to the stimulus. […]
readout-type: IC50

For orientation, consider the following solved cases.
>>> recorded_measurement("O=C(c1cnc(N2CCOCC2)nc1-c1ccccc1F)N(Cc1ccccc1)C1CCCCC1")
"2 to 10 µM"
>>> recorded_measurement("CC(C)N(Cc1ccc(C(C)(C)C)cc1)C(=O)c1cnc(N2CCCCC2)nc1-c1ccccc1F")
"2 to 10 µM"
>>> recorded_measurement("CC1CC(C)CN(C(=O)c2cnc(NCc3cccc(Cl)c3)nc2-c2ccc(C#N)cc2)C1 (centres unmarked)")
"> 10 µM"
>>> recorded_measurement("O=C(c1cnc(N2CCCCC2)nc1-c1ccccc1F)N(Cc1cccc(-c2ccncc2)c1)C1CC1")
"2 to 10 µM"

// below: IC50 requested for another compound
IC50 lookup needed for O=C(NCc1ccccc1)c1cnc(NCCc2cccc(F)c2)nc1-c1ccccc1F , thanks.
> 10 µM

====

Target: CaV2.2 (Homo sapiens, UniProt Q00975)
Assay: VIPR optical membrane potential assay with electrical stimulation, CaV2.2
Settings: Table 9, CaV 2.2 receptors
Listing of recorded IC50 by entry.

Here are 6 compounds together with their reported answers.
>>> recorded_measurement("CCC(COC)N(Cc1ccccc1)C(=O)c1cnc(N2CCOCC2)nc1-c1ccccc1F (centres unmarked)")
"> 10 µM"
>>> recorded_measurement("CC(C)N(C(=O)c1cnc(N2CCCCC2)nc1-c1ccccc1F)c1cccc([N+](=O)[O-])c1")
"2 to 10 µM"
>>> recorded_measurement("COc1ccc(N(C(=O)c2cnc(N3CCCCC3)nc2-c2ccccc2F)C(C)C)cc1")
"< 2 µM"
>>> recorded_measurement("COc1ccc(CN(C(=O)c2cnc(N3CCN(C)CC3)nc2-c2ccccc2F)C2CC2)cc1")
"> 10 µM"
>>> recorded_measurement("CC(C)N(C(=O)c1cnc(N2CCOCC2)nc1-c1ccccc1F)c1cccc(C#N)c1")
"> 10 µM"
>>> recorded_measurement("Cc1ccc(CNc2ncc(C(=O)N3CCC(C)CC3)c(-c3ccc(C#N)cc3)n2)o1")
"> 10 µM"

// lookup IC50 for CC(C)N(Cc1ccccc1)C(=O)c1cnc(Nc2cccc(O)c2)nc1-c1ccccc1F
> 10 µM

Would you kindly share the measured IC50 for CN1CCN(c2ncc(C(=O)N(Cc3ccncc3)C3CC3)c(-c3ccccc3F)n2)CC1 ?
> 10 µM

Dear colleague, I am looking for the recorded IC50 of the following compound: O=C(c1cnc(N2CCOCC2)nc1-c1ccccc1F)N(Cc1ccc(F)cc1)C1CC1
2 to 10 µM

Please look up its IC50: O=C(c1cnc(N2CCOCC2)nc1-c1ccccc1F)N(Cc1cccc2ccccc12)C1CC1
> 10 µM

Which IC50 is reported for this compound? COCCNc1ncc(C(=O)N(Cc2ccccc2)C(C)C)c(-c2ccccc2F)n1
> 10 µM

====

Target: NaV1.3 (Homo sapiens, UniProt Q9NY46)
Construct: expressed in transfected cells; host or cells: HEK293
Sequence (Q9NY46 whole entry): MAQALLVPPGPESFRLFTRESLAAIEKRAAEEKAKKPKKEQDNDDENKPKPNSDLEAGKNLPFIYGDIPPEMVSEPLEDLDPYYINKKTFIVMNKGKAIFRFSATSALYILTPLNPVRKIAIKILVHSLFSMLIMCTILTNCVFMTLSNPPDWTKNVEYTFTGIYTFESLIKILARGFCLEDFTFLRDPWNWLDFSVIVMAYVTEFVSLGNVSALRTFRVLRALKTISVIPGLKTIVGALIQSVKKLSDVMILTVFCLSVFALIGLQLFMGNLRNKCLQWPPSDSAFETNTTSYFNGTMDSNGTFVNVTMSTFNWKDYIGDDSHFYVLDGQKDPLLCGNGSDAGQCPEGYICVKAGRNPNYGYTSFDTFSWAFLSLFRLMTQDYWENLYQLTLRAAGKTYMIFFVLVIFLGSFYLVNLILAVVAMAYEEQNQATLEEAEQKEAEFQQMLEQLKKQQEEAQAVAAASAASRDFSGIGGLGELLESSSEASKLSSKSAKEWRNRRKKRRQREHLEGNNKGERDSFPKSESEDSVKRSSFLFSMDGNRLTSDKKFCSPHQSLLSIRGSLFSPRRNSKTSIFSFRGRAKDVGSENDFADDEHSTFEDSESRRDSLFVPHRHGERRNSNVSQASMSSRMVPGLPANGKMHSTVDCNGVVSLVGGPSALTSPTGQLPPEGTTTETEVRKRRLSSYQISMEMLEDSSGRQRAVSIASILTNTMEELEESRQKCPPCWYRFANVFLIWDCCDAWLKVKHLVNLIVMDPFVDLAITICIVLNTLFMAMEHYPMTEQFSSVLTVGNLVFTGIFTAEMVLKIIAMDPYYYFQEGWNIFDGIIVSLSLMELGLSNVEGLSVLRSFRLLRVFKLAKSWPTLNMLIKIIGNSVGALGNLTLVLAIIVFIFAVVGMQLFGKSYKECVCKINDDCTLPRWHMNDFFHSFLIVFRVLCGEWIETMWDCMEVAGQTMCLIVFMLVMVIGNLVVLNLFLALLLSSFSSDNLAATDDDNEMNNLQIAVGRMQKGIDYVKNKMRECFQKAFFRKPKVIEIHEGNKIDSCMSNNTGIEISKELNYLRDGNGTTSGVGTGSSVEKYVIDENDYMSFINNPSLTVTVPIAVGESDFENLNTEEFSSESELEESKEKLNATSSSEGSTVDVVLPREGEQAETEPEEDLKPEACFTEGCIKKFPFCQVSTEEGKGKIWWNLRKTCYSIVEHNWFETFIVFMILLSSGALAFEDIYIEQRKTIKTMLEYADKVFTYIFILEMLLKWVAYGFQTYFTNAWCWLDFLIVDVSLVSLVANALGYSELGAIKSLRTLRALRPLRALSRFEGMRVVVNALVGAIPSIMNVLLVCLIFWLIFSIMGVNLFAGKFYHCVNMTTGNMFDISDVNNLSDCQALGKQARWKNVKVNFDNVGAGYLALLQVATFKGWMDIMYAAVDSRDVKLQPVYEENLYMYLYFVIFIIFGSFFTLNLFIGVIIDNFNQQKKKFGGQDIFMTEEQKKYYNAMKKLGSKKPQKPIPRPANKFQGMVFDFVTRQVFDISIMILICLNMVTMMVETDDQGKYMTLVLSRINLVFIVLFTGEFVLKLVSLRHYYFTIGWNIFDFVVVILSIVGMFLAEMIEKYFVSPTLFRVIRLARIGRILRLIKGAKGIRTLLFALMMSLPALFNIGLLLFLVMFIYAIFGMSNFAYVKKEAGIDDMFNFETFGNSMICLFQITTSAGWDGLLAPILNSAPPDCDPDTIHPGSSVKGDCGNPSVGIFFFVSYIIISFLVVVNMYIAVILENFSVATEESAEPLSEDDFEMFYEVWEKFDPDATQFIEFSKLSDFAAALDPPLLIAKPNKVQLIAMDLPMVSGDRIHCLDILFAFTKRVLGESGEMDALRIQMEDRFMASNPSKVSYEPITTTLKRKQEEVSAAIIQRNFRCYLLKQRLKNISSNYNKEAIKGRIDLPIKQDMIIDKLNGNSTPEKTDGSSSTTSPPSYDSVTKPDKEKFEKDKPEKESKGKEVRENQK
Experiment: VIPR optical membrane potential assay with electrical stimulation, NaV1.3
Type: cell-based
Settings: Table 9, NaV 1.3 receptors
pIC50: −log10 of the molar value.
readout-type: pIC50

Known pIC50 results, listed for orientation:
>>> recorded_measurement("CC(C)N(Cc1ccccc1)C(=O)c1cnc(NCC2CC2)nc1-c1ccccc1F [compound 277]")
"< 5.00"
>>> recorded_measurement("N#Cc1ccc(-c2nc(NC3CCCCC3)ncc2C(=O)N2CCCC2)cc1 [compound 210]")
"< 5.00"
>>> recorded_measurement("COc1cccc(CN(C(=O)c2cnc(N3CCCCC3)nc2-c2ccccc2Cl)C(C)C)c1 [compound 55]")
"5.00 to 5.70"
>>> recorded_measurement("COc1cccc(N(C(=O)c2cnc(N3CCCCC3)nc2-c2ccccc2Cl)C(C)C)c1 [compound 175]")
"5.00 to 5.70"

Any idea what its pIC50 is? The compound is CC(=O)N1CCN(c2ncc(C(=O)N3CCOCC3)c(-c3cccc(C)c3)n2)CC1 [compound 226]
< 5.00

For the compound shown here, CCN(Cc1ccccc1)C(=O)c1cnc(NCc2ccc3c(c2)OCO3)nc1-c1ccccc1F [compound 222] , give the reported pIC50.
< 5.00
